src = patent US4596799A

Attribute: IC50
studySystem: benzodiazepine receptor
measurementDescription: in vitro benzodiazepine receptor binding assay, tritiated flunitrazepam as radioactive ligand
measurementConditions: 0.5 nM tritiated flunitrazepam; read-out: IC50, concentration required to inhibit the specific binding of tritiated flunitrazepam by 50%
readout: IC50

INSERT INTO measurements (compound, obsvalue) VALUES
  ('COc1cc2c(cc1OC)-n1c(-c3ccccn3)nnc1-c1cccn1C2.Cl [Example 7f, hydrochloride]', '~1 nM'),
  ('Cl.Clc1ccc2c(c1)-n1c(-c3ccccn3)nnc1-c1cccn1C2 [Example 3, Hydrochloride]', '~0.7 nM'),
  ('Cl.FC(F)(F)c1ccc2c(c1)-n1c(-c3ccccn3)nnc1-c1cccn1C2 [Example 4, Hydrochloride]', '~0.4 nM'),
  ('Cl.c1ccc(-c2nnc3n2-c2ccccc2Cn2cccc2-3)nc1 [Example 1, Hydrochloride]', '~4 nM');
